Below, each of the variants is paired with its reported yeast fitness value.
B1: tRNA (parent)
chain: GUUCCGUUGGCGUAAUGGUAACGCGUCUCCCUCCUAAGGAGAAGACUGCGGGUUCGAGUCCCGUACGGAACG

Variants of: B1
Test: yeast fitness relative to wild type (ratio to wild type); higher = fitter; tRNA-Arg(CCU), competitive growth, 37 C, YPD
Variants at the floor of the assay were thinned out.
Give a plain numeric answer without units written out.

C29U A43G C49A : 0.615

For the variant C5G C30U U54A , what yeast fitness is on record?
0.601

For the variant G10A A15U G51A A65U , what yeast fitness is on record?
0.603

For the variant G48A U53G , what yeast fitness is on record?
0.599

Where do the numbers come from? From the RNAGym collection of RNA variant scans (doi:10.1126/science.aae0568).
